ASSAYED SYSTEM: Ataxin-2 (Homo sapiens)
EXPERIMENTAL PROTOCOL: qHTS for Inhibitors of ATXN expression.
Type: functional
Out of some 400,000 compounds screened, about 2,100 (0.53%) were called active. Roughly 14% stayed inconclusive and do not appear here. Only a selection was taken, and actives are over-represented in it overall.
READOUT NAME: Potency

Below are worked cases with known answers.
Q: Recall and state the measured Potency for `N#C/C(=C\c1cccnc1)c1nc2ccccc2[nH]1` .
A: inactive

Q: Recall and state the measured Potency for `O=C(O)C(=O)/C(=C\c1cccc(Cl)c1)c1ccc2ccccc2n1` .
A: inactive

Q: Recall and state the measured Potency for `COc1cc(C(=O)NNC(=O)c2ccccc2OCc2c(C)noc2C)cc(OC)c1OC` .
A: inactive

Q: Recall and state the measured Potency for COc1ccc(C(=O)/C=C/c2cn(CC(O)CN3CCc4ccccc43)c3ccccc23)cc1 (stereo not given) .
A: inactive

Q: Recall and state the measured Potency for COc1ccc(C(=O)/C=C/c2cn(CC(O)CN(CC(C)C)CC(C)C)c3ccccc23)cc1 (stereo not given) .
A: inactive

Count: 6. Required value per item: Potency.
1. Cc1c(O)ccc2c(CN(C)Cc3ccccc3)cc(=O)oc12
2. COc1ccc(Cl)cc1NC(=O)Cn1c(=O)n(CCCC(=O)NCCc2ccc(OC)c(OC)c2)c(=O)c2ccccc21
3. CCCN(CCC)CC(O)Cn1cc(/C=C/C(=O)c2ccc(OCC)cc2)c2ccccc21 (stereo not given)
4. Cc1ccc(N(CCC#N)C(=O)CCl)cc1C
5. Cc1csc(NC(=O)c2cc3c(s2)-c2ccccc2OC3)n1
6. COc1ccc(CCNC(=O)CCCn2c(=O)c3ccccc3n(CC(=O)Nc3ccc(C)cc3Cl)c2=O)cc1OC

A:
1. inactive
2. 39.8 µM (active)
3. inactive
4. 35.5 µM (active)
5. inactive
6. 20 µM (active)
